Hello, the source for this data is patent US20230398130A1, in case you need it.

# Tested on: ISC-enriched organoids
# procedure_details: Primary screen, 384-well 2.5-D organoid differentiation (ENR+CD, 6 days): basal lysozyme secretion (LYZ.NS)
# Format: cell-based, murine
# run_parameters: Dose 0.40 uM; primary screen, standard z score
# From the text: High-throughput screening.
Mark each entry YES if its Z.LYZ.NS sits below 0.3, and NO for all others.

For orientation, consider the following solved cases.
> print(dat)
                                   compound  assigned.label
1     Cn1cc(/C=C2\C(=O)Nc3cccnc32)c2ccccc21              NO
2  CCOC(=O)CCNc1cc(N2CCc3ccccc3CC2)nc(-c2ccccn2)n1.Cl [GSK J4 HCl]              NO
3  NC(=O)c1cccc(-c2cc(Nc3ccc(OC(F)(F)F)cc3)ncn2)c1             YES
4  CC(C)c1ccc(NC(=O)Cn2cnc3c2c(=O)n(C)c(=O)n3C)cc1             YES

Q: Z.LYZ.NS under 0.3? Item: `NC(=O)c1ccc(I)c([N+](=O)[O-])c1`
Result: YES

Q: Threshold test, Z.LYZ.NS < 0.3: Cc1noc(-c2ccc(CSCCC(=O)O)cc2)c1NC(=O)OC(C)c1ccccc1Cl (stereo not shown)
Result: NO

Q: Find out if reported Z.LYZ.NS for `O=C(Nc1cc(C(F)(F)F)cc(C(F)(F)F)c1)c1cc(Cl)ccc1O` is less than 0.3
Result: NO

Q: Item `C[C@@H](Oc1cc(-n2cnc3ccc(CN4CCN(C)CC4)cc32)sc1C(N)=O)c1ccccc1C(F)(F)F` : Z.LYZ.NS beneath 0.3, strictly?
Result: YES

Q: Is Z.LYZ.NS of `COc1ccc(COc2ccc(Cc3cnc(N)nc3N)cc2OC)cc1` strictly below 0.3?
Result: YES

Q: For this compound, is Z.LYZ.NS lower than 0.3? `CC(C)(C)c1cc(C(C)(C)C)c(NC(=O)c2c[nH]c3ccccc3c2=O)cc1O`
Result: NO

Q: Record `COc1ccc2c(c1)c(C1=C(c3c[nH]c4ccccc34)C(=O)NC1=O)cn2CCCN(C)C` : is its Z.LYZ.NS strictly below 0.3?
Result: YES

Q: Could you please tell me whether Z.LYZ.NS recorded for `Clc1ccc(N/N=C(\c2ccccc2)c2ccccn2)nc1` is less than 0.3?
Result: YES

Q: Is 0.3 strictly greater than the compound's reported Z.LYZ.NS? compound: `COc1cc(-c2ncn(/C=C\C(=O)OC(C)C)n2)cc(C(F)(F)F)c1`
Result: NO

Q: # TODO verify Z.LYZ.NS < 0.3 strictly for this compound: `CCCCc1nc(Cl)c(CO)n1Cc1ccc(-c2ccccc2-c2nnn[n-]2)cc1.[K+]`
Result: NO

Q: Consider the compound `O=C(Nc1ccccc1)N1CCN(c2nc(-c3ccccc3)ns2)CC1` . Is its Z.LYZ.NS strictly less than 0.3?
Result: NO

Q: Bench note: check whether `CNC(=O)[C@H](Cc1c[nH]c2ccccc12)NC(=O)[C@@H](CC(=O)NO)CC(C)C` shows Z.LYZ.NS below 0.3
Result: YES

Q: Find out if reported Z.LYZ.NS for CC(C)CCNC(=O)[C@H](CC(C)C)NC(=O)[C@H]1O[C@@H]1C(=O)O [Loxistatin Acid (E-64C)] is less than 0.3
Result: NO

Q: Does this compound meet the criterion Z.LYZ.NS < 0.3? `O=C1[C@H](Cc2ccc(O)cc2)N2C(=O)CCN(C(=O)NCc3ccccc3)[C@H]2CN1Cc1cccc2ccccc12`
Result: NO

Q: # TODO verify Z.LYZ.NS < 0.3 strictly for this compound: `O=C(c1ccc(Nc2nccc(-c3cc4ccccc4s3)n2)cc1)N1CCC(N2CCCC2)CC1`
Result: YES
